- Tested on: ragweed (common ragweed, Ambrosia artemisiifolia)
- Test method notes: Test A1 preemergence, ragweed
- Format: in vivo
- Particulars: 125 g ai/ha, 0 to 100 scale, 0 no effect, 100 complete control
Assign labels as follows, please: MET for Plant response rating, Ragweed below 20; NOT MET for Plant response rating, Ragweed equal to or exceeding 20.

Study these solved cases before continuing.
INSERT INTO results (molecule, label_class) VALUES
  ('COC(=O)OCN(c1cc(C2=NOC3CCCC23)c(C)cc1C)S(=O)(=O)C(F)(F)F (centres unmarked) [Compound 315]', 'NOT MET'),
  ('Cc1cc(C2CC2)c(NS(=O)(=O)C(F)(F)F)cc1C1=NOC2(CCCC2)C1 [Compound 313]', 'MET'),
  ('Cc1cc(C)c(N(COC(=O)C(C)(C)C)S(=O)(=O)C(F)(F)F)cc1C1=NOC2OCCC12 (centres unmarked) [Compound 352]', 'NOT MET');

Take the molecule CCOC(=O)N(c1cc(C(=O)N2CCSCC2)c(C)c(C)c1C)S(=O)(=O)C(F)(F)F [Compound 286] and say whether its Plant response rating, Ragweed is less than 20.
MET

Take the molecule CCOC(=O)N(c1cc(C(=O)N2CCC(F)(F)CC2)c(C)cc1C)S(=O)(=O)C(F)(F)F [Compound 351] and say whether its Plant response rating, Ragweed is less than 20.
NOT MET

Take the molecule C#CCN(C)C(=O)c1cc(NS(=O)(=O)C(F)(F)F)c(Cl)c(F)c1C [Compound 337] and say whether its Plant response rating, Ragweed is less than 20.
NOT MET

Take the molecule Cc1cc(Cl)c(NS(=O)(=O)C(F)(F)F)cc1N1CCC2(CCCCC2)C1=O [Compound 393] and say whether its Plant response rating, Ragweed is less than 20.
NOT MET

---

- Tested on: barnyardgrass (Echinochloa crus-galli)
- Test method notes: Test A postemergence, barnyardgrass
- Assay type: in vivo
- Particulars: Postemergence, 500 g ai/ha; visual injury approx. 10 days; 0 to 100 scale (0 no effect, 100 complete control)
// reported Plant response rating, Barnyardgrass per item
The answer should be a number; do not append a unit.

INSERT INTO measurements (cpd_smiles, measured_result) VALUES
  ('Cc1cc(C)c(N(S(=O)(=O)C(F)(F)F)S(=O)(=O)C(F)(F)F)cc1C(=O)N1CCC(Cl)CC1', 70),
  ('Cc1cc(Cl)c(C(=O)N(C)C)cc1NS(=O)(=O)C(F)(F)F', 70),
  ('Cc1cc(Cl)c(C(=O)N2CCCCC2)cc1NS(=O)(=O)C(F)(F)F', 30),
  ('Cc1cc(Cl)c(C(=O)N2CCOCC2)cc1NS(=O)(=O)C(F)(F)F', 90);

I'd like to know its Plant response rating, Barnyardgrass. The molecule in question is Cc1cc(Cl)c(C(=O)N(C)C)cc1N(S(=O)(=O)C(F)(F)F)S(=O)(=O)C(F)(F)F
50

---

- Tested on: barnyardgrass (Echinochloa crus-galli)
- Test method notes: Test A preemergence, barnyardgrass
- Assay type: in vivo
- Particulars: Preemergence, 125 g ai/ha; visual injury on 0 to 100 scale (0 no effect, 100 complete control), approximately 10 days
// reported Barnyardgrass plant response rating per item
The answer should be a number; do not append a unit.

INSERT INTO assay_data (compound, measured_result) VALUES
  ('Cc1cc(C)c(N(S(=O)(=O)C(F)(F)F)S(=O)(=O)C(F)(F)F)cc1C1=NOC2(CCC(C)(C)CC2)C1 [Compound 139]', 0),
  ('Cc1cc(C)c(N(S(=O)(=O)C(F)(F)F)S(=O)(=O)C(F)(F)F)cc1-c1cc(C(F)(F)F)nn(C)c1=O [Compound 61]', 100),
  ('Cc1cc(C)c(-c2ccnn(C(C)C)c2=O)cc1NS(=O)(=O)C(F)(F)F [Compound 78]', 90);

I'd like to know its Barnyardgrass plant response rating. The compound in question is Cc1cc(C)c(-c2ccnn(CC(F)(F)F)c2=O)cc1NS(=O)(=O)C(F)(F)F [Compound 57]
100

I'd like to know its Barnyardgrass plant response rating. The compound in question is CCn1nc(C)cc(-c2cc(N(S(=O)(=O)C(F)(F)F)S(=O)(=O)C(F)(F)F)c(C)cc2C)c1=O [Compound 52]
100

I'd like to know its Barnyardgrass plant response rating. The compound in question is COc1c(Cl)nn(C)c(=O)c1-c1cc(NS(=O)(=O)C(F)(F)F)c(C)cc1C [Compound 64]
50

I'd like to know its Barnyardgrass plant response rating. The compound in question is CCn1cc(-c2cc(N(S(=O)(=O)C(F)(F)F)S(=O)(=O)C(F)(F)F)c(C)cc2C)c(=O)n(C)c1=O [Compound 30]
90

I'd like to know its Barnyardgrass plant response rating. The compound in question is Cc1ccc(-c2ccnn(C)c2=O)cc1NS(=O)(=O)C(F)(F)F [Compound 59]
0

---

- System: Ryegrass, Italian (Italian ryegrass, Lolium multiflorum)
- Test method notes: Test A preemergence, Ryegrass, Italian
- Format: in vivo
- Particulars: Preemergence, 125 g ai/ha; visual injury on 0 to 100 scale (0 no effect, 100 complete control), approximately 10 days
Measurement label: Ryegrass, Italian plant response rating
The answer should be a number; do not append a unit.

INSERT INTO assay_data (compound, measured_result) VALUES
  ('Cc1cc(C)c(N(S(=O)(=O)C(F)(F)F)S(=O)(=O)C(F)(F)F)cc1-c1cc(C(F)(F)F)nn(C)c1=O', 70),
  ('Cc1cc(C)c(N(S(=O)(=O)C(F)(F)F)S(=O)(=O)C(F)(F)F)cc1C1=NOC(C(C)(C)C)C1 (stereo not shown)', 60),
  ('Cc1cc(Cl)c(NS(=O)(=O)C(F)(F)F)cc1C(=O)N1CCOC(C)C1 (stereo not shown)', 90);

Shift focus to the following entry.
I'd like to know its Ryegrass, Italian plant response rating. The compound in question is Cc1cc(C)c(N(S(=O)(=O)C(F)(F)F)S(=O)(=O)C(F)(F)F)cc1C1=NOC2(CCC3(CC2)OCCO3)C1
90

---

- Tested on: blackgrass (Alopecurus myosuroides)
- Test method notes: Test A1 postemergence, blackgrass
- Type: in vivo
- Particulars: Postemergence, 125 g ai/ha; 0 to 100 scale (0 no effect, 100 complete control)
Measurement label: Plant response rating, Blackgrass

Example cases with answers are listed next.
INSERT INTO results (compound, tested_on, measured_result) VALUES
  ('Cc1c(C(=O)N2C[C@@H](C)O[C@@H](C)C2)cc(N(COC(=O)C(C)(C)C)S(=O)(=O)C(F)(F)F)c(C)c1C [Compound 331]', 'blackgrass (Alopecurus myosuroides)', 50),
  ('Cc1c(C2=NO[C@@H]3CCC[C@H]23)cc(N(COC(=O)C(C)(C)C)S(=O)(=O)C(F)(F)F)c(C)c1C [Compound 336]', 'blackgrass (Alopecurus myosuroides)', 0),
  ('Cc1cc(C)c(N(COC(=O)OC(C)(C)C)S(=O)(=O)C(F)(F)F)cc1C1=NOC2CCCC12 (centres unmarked) [Compound 316]', 'blackgrass (Alopecurus myosuroides)', 0),
  ('Cc1c(C(=O)N2CCC(F)CC2)cc(N(COC(=O)C(C)(C)C)S(=O)(=O)C(F)(F)F)c(C)c1C [Compound 361]', 'blackgrass (Alopecurus myosuroides)', 0),
  ('Cc1c(C(=O)N2CCC(C)CC2)cc(N(COC(=O)C(C)(C)C)S(=O)(=O)C(F)(F)F)c(C)c1C [Compound 369]', 'blackgrass (Alopecurus myosuroides)', 0),
  ('Cc1c(NS(=O)(=O)C(F)(F)F)cc(C(=O)N2CCOCC2)c(C)c1Cl [Compound 290]', 'blackgrass (Alopecurus myosuroides)', 0),
  ('CCCCOC1CC(c2cc(NS(=O)(=O)C(F)(F)F)c(C)cc2C)=NO1 (centres unmarked) [Compound 323]', 'blackgrass (Alopecurus myosuroides)', 50);

Shift focus to the following entry.
I'd like to know its Plant response rating, Blackgrass. The compound in question is CCOC(=O)N(c1cc(C(=O)N2CCCCC2)c(C)c(C)c1C)S(=O)(=O)C(F)(F)F [Compound 330]
40

---

- Tested on: Oat, Wild (wild oat, Avena fatua)
- Test method notes: Test A1 preemergence, Oat, Wild
- Assay type: in vivo
- Particulars: 125 g ai/ha, 0 to 100 scale, 0 no effect, 100 complete control
- Text: […]
// reported Plant response rating, Oat, Wild per item
The answer should be a number; do not append a unit.

Example cases with answers are listed next.
INSERT INTO assay_data (compound, measurement_label, measured_result) VALUES
  ('Cc1cc(C)c(N(COC(=O)C(C)(C)C)S(=O)(=O)C(F)(F)F)cc1N1CCC2(CCC(C(F)(F)F)CC2)C1=O (stereo not drawn) [Compound 403]', 'Plant response rating, Oat, Wild', 10),
  ('CCOC(=O)N(c1cc(C(=O)N2CCC(F)(F)CC2)c(C)cc1C)S(=O)(=O)C(F)(F)F [Compound 351]', 'Plant response rating, Oat, Wild', 30),
  ('Cc1cc(Cl)c(NS(=O)(=O)C(F)(F)F)cc1N1CCC2(CCCCC2)C1=O [Compound 393]', 'Plant response rating, Oat, Wild', 70),
  ('Cc1c(C2=NO[C@@H]3CCC[C@H]23)cc(N(COC(=O)C(C)(C)C)S(=O)(=O)C(F)(F)F)c(C)c1C [Compound 336]', 'Plant response rating, Oat, Wild', 20),
  ('Cc1c(C(=O)N2CCC(F)(F)CC2)cc(N(COC(=O)C(C)(C)C)S(=O)(=O)C(F)(F)F)c(C)c1C [Compound 360]', 'Plant response rating, Oat, Wild', 0);

I'd like to know its Plant response rating, Oat, Wild. The compound in question is Cc1cc(Br)c(C2=NOC3CCCC23)cc1NS(=O)(=O)C(F)(F)F (stereo not drawn) [Compound 302]
20
